Test system: MOLT-4
Assay: NCI-60 single dose screen, MOLT-4
Assay type: cell-based
Conditions: Homo sapiens, Leukemia, single concentration 10^−5 M, read-out: IGP (inhibition growth percent) MOLT-4
REPORTED PROPERTY: inhibition at 10 µM (%)
Numbers only, in %.

Field: inhibition at 10 µM. Fill in for each record below.
1. Cc1cc(S(=O)(=O)Nc2nc(-c3ccccc3)c3ccccc3n2)c(SCC(N)=O)cc1Cl [Compound 14]
2. Cc1ccc(NC(=O)c2cc(S(=O)(=O)Nc3nc(-c4ccccc4)c4ccccc4n3)c(SCc3ccccc3)cc2Cl)cc1 [Compound 24]
3. Cc1cc(S(=O)(=O)Nc2nc(C)c3ccccc3n2)c(SCc2cc3c(cc2Cl)OCO3)cc1Cl [Compound 11]
4. Cc1cc(S(=O)(=O)Nc2nc(-c3ccccc3)c3ccccc3n2)c(SCc2cc3c(cc2Cl)OCO3)cc1Cl [Compound 12]

A:
[9, 21, 20, 12]
